# test.details: HPLC quantitation of compound and metabolite concentration in rat serum and liver
# Assay type: in vivo
# test.settings: male, Sprague-Dawley, oral, 0.3 % in chow; parent compound concentration in rat liver; diet 0.3%, 4 days; mean N = 5; read-out: Liver Parent
measure: concentration at 5 day (ng/g)
Reply with just the number (in ng/g).

See these solved cases before continuing.
CC(C)=CCC[C@H](C)CCOc1cc(C(C)(C)C)c(O)c(C(C)(C)C)c1: 64600
CC(C)=CCCC(C)CCOc1ccc(O)c(C(C)(C)C)c1 (stereo not shown): 0
CC(C)=CCC[C@H](C)CCSc1ccc(O)c(C(C)(C)C)c1: 0

q: Reported concentration at 5 day, compound CC(C)CCCC(C)CCOc1ccc(O)c(C(C)(C)C)c1 (stereo not shown) : ____
a: 16100

q: Reported concentration at 5 day, compound CC(C)=CCCC(C)CCSc1cc(C(C)(C)C)c(O)c(C(C)(C)C)c1 (stereo not shown) : ____
a: 47300

q: Reported concentration at 5 day, compound CC(C)CCCC(C)CCOc1cc(C(C)(C)C)c(O)c(C(C)(C)C)c1 (stereo not shown) : ____
a: 481000

q: Reported concentration at 5 day, compound CC(C)=CCC[C@H](C)CCOc1cc(C(C)(C)C)c(O)cc1C(C)(C)C : ____
a: 0
